- Test system: HEP G2 (hepatocarcinoma)
- methodNotes: MTT cell viability assay, HEP G2
- Format: cell-based
- cond: Homo sapiens, HepG2, HEP G2
assayMetric: IC50

[
  {
    "molecule": "COc1ccc(COC(=O)c2cc(OC)c(OC)c(OC)c2)cc1 [Compound 9]",
    "system": "HEP G2 (hepatocarcinoma)",
    "val": "< 10 µM"
  }
]

###

- Tested on: SCC9 cells
- methodNotes: MTT cell viability (cytotoxicity) assay, SCC9
- Format: cell-based, human
assayMetric: cytotoxic activity against SCC9 cells (in words)

[
  {
    "compound": "COc1cc(C(=O)NCc2ccc(F)cc2)cc(OC)c1OC",
    "val": "inactive"
  },
  {
    "compound": "CCOC(=O)c1cc(OC)c(OC)c(OC)c1 [Compound 2, Ethyl 3,4,5–trimethoxybenzoate]",
    "val": "no cytotoxic activity"
  },
  {
    "compound": "COc1cc(C(=O)OCc2ccc(Br)cc2)cc(OC)c1OC [Compound 10, 4-Bromo-benzyl 3,4,5–trimethoxybenzoate]",
    "val": "no cytotoxic activity"
  },
  {
    "compound": "COc1cc(C(=O)O)cc(OC)c1OC",
    "val": "inactive"
  }
]

###

- Tested on: HT-29 (colon adenocarcinoma)
- methodNotes: MTT cell viability assay, HT-29
- Format: cell-based
- cond: HT-29
pIC50: −log10 of the molar value.

[
  {
    "molecule": "COc1ccc(COC(=O)c2cc(OC)c(OC)c(OC)c2)cc1 [Compound 9]",
    "system": "HT-29 (colon adenocarcinoma)",
    "pIC50": 5.14
  }
]
